# system-name: Protein kinase C delta type (Homo sapiens, UniProt Q05655)
# Sequence (Q05655 whole entry): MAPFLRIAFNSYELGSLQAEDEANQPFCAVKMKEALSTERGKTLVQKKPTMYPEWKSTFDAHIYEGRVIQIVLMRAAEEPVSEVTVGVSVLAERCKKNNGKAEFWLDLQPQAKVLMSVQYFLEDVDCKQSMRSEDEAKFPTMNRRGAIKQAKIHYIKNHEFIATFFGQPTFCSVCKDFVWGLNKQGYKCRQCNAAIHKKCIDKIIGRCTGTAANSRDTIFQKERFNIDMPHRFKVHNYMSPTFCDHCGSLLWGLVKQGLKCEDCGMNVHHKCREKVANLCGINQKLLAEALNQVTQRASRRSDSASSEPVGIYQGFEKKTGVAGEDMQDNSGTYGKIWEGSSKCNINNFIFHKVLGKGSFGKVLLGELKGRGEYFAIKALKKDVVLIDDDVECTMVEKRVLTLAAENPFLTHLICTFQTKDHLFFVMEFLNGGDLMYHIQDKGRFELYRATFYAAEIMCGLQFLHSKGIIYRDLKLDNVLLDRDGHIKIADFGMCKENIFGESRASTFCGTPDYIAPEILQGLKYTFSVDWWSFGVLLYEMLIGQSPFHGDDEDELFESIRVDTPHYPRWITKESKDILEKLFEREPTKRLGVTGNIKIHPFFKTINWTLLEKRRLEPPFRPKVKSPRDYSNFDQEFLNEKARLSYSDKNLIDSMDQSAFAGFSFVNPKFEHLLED
# assay-info: Activation of PKCdelta (unknown origin) after 40 mins
Provide the reported pEC50 of each item.
Numbers only, as −log10 of the molar value.

Value of pEC50 reported for the compound `COc1cccc(OC)c1C(=O)O[C@H]1C(C)=C[C@]23C(=O)[C@@H](C=C(CO)[C@@H](O)[C@]12O)[C@H]1[C@@H](C[C@H]3C)C1(C)C` is 6.81

Quick request: pEC50 for each listed item, please.
1. CC1=C[C@]23C(=O)[C@@H](C=C(CO)[C@@H](O)[C@]2(O)[C@H]1OC(=O)c1ccccc1Nc1ccccc1)[C@H]1[C@@H](C[C@H]3C)C1(C)C
2. CC1=C[C@]23C(=O)[C@@H](C=C(CO)[C@@H](O)[C@]2(O)[C@H]1OC(=O)c1ccccc1Oc1ccccc1)[C@H]1[C@@H](C[C@H]3C)C1(C)C

a:
8.38
7.88

Reference for the values: ChEMBL document CHEMBL3102768
